The reported measurements were obtained from patent US20190315854A1.

Target: T1, sIL-6R (soluble IL-6 receptor; SBH Sciences) (human, UniProt P08887 20-365)
T1 construct: also called human IL-6R
T1 sequence: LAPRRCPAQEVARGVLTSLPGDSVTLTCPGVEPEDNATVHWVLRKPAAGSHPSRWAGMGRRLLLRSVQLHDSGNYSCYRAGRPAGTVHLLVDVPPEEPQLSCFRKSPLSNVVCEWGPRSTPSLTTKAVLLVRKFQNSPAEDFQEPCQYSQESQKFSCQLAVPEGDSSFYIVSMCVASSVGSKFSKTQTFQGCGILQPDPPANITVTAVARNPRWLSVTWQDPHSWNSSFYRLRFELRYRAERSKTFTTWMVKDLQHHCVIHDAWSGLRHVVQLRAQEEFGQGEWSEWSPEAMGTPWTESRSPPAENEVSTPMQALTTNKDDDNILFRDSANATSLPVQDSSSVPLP
Assay: SPR (BIAcore 3000), antibody on chip, sIL-6R analyte, 25 C
The following binders are listed with their measured Relative Affinity values.
ATTRIBUTE_MEASURED: Relative Affinity

>  <BINDER>
208# (antibody, human IgG1, kappa, V domains shown, also called Sample # 208) VH: QVQLQESGPGLVRPSQTLSLTCTVSGYSITSDHAWSWVRQPPGRGLEWIGFISYSGMTTYNPSLKSRVTMLRDTSKNQFSLRLSSVTAADTAVYYCARSLARATAMDYWGQGSLVTVSS VL: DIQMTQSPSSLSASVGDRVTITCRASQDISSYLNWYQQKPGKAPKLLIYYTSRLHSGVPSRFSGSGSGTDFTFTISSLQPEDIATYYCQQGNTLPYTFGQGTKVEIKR

>  <VALUE_REPORTED>
22.6 fold vs 25 (Tocilizumab)

$$$$
>  <BINDER>
49# (antibody, human IgG1, kappa, V domains shown, also called Sample # 49) VH: QVQLQESGPGLVRPSQTLSLTCTVSGYSITSDHAWSWVRQPPGRGLEWIGYISYSGITTYNASLKSRVTMLRDTSKNQFSLRLSSVTAADTAVYYCARSLARTTAMDYWGQGSLVTVSS VL: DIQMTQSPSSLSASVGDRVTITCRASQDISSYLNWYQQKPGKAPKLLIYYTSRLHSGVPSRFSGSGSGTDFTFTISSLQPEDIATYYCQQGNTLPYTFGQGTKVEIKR

>  <VALUE_REPORTED>
1.7 fold vs 25 (Tocilizumab)

$$$$
>  <BINDER>
204# (antibody, human IgG1, kappa, V domains shown) VH: QVQLQESGPGLVRPSQTLSLTCTVSGYSITSDHAWSWVRQPPGRGLEWIGFISYSGMTTYNPSLKSRVTMLRDTSKNQFSLRLSSVTAADTAVYYCARCLARITAMDYWGQGSLVTVSS VL: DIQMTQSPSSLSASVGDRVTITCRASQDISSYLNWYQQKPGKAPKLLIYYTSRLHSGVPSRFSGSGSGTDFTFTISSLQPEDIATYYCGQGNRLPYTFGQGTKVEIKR

>  <VALUE_REPORTED>
199 fold vs 25 (Tocilizumab)

$$$$
>  <BINDER>
56# (antibody, human IgG1, kappa, V domains shown, also called Sample # 56) VH: QVQLQESGPGLVRPSQTLSLTCTVSGYSITSDHAWSWVRQPPGRGLEWIGFISYSGMITYNPSLKSRVTMLRDTSKNQFSLRLSSVTAADTAVYYCARSLARITAMDYWGQGSLVTVSS VL: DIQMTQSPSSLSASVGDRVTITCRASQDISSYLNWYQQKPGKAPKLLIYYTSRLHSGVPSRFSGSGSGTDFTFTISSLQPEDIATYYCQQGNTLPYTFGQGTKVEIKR

>  <VALUE_REPORTED>
11.7 fold vs 25 (Tocilizumab)

$$$$
>  <BINDER>
62# (antibody, human IgG1, kappa, V domains shown, also called Sample # 62) VH: QVQLQESGPGLVRPSQTLSLTCTVSGYSITSDHAWSWVRQPPGRGLEWIGFISYSGMTTYNPSLKSRVTMLRDTSKNQFSLRLSSVTAADTAVYYCARCLARATAMDYWGQGSLVTVSS VL: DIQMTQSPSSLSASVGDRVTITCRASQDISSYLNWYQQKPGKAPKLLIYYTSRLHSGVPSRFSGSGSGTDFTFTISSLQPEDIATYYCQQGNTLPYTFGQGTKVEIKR

>  <VALUE_REPORTED>
110 fold vs 25 (Tocilizumab)

$$$$
